I'd be grateful if you could share measured growth for these entries.
tested on: CCRF-CEM leukemia; assay: NCI-60 one-dose screen, 48 h (100 = growth as untreated, 0 = no growth, -100 = all killed); conditions: 10 µM unless noted
About 83,000 compounds went through this panel and 20% of them were active in at least one assay; those are over-represented in the sample as a whole.
Numeric only. Scale: %

growth measured on `CC[C@H](C)[C@@H]([C@@H](CC(=O)N1CCC[C@H]1[C@H](OC)[C@@H](C)C(=O)N[C@H](C)[C@@H](O)c1ccccc1)OC)N(C)C(=O)[C@@H](NC(=O)[C@@H](NC)C(C)C)C(C)C` = 20.8

growth measured on `COC1=CC(=O)O[C@@H](/C=C/c2ccc3c(c2)OCO3)C1` = 61.2

growth measured on `C#Cc1ccc2c(c1)C(c1ccccc1)=NCC(=O)N2C` = 48.9

growth measured on `Cc1c(O)c(CN(CCCl)CCCl)cc(CN(CCCl)CCCl)c1O` = 41.8

###

I'd be grateful if you could share measured growth for these entries.
tested on: RXF 393 renal; test: NCI-60 one-dose screen, 48 h (100 = growth as untreated, 0 = no growth, -100 = all killed); conditions: 10 µM unless noted
The panel holds about 83,000 compounds, 20% with a hit somewhere; the sample as a whole holds those more often.
Numeric only. Scale: %

growth measured on `O[C@H](CN1CC1)[C@@H](O)CN1CC1` = 77.2

growth measured on `CC(=O)O[C@H](C[C@H](C(C)C)N(C)C(=O)[C@@H](NC(=O)[C@H]1CCCCN1C)C(C)C)c1nc(C(=O)N[C@@H](Cc2ccccc2)C[C@H](C)C(=O)O)c(C)s1` = 53.9

growth measured on CC1CN1CCCCN1CC1C (stereo not drawn) = 115

growth measured on `Nc1ccc2c(c1)oc1ccccc12` = 92.4

growth measured on `ClCCN(CCCl)c1ccc(OCc2ccccc2)cc1` = 82.1

growth measured on CN1CCC(O)(c2ccc(F)cc2)C(C(=O)c2ccc(F)cc2)C1 (stereo not drawn) = 103

growth measured on CCCCN1CCCC[C@@H]1C(=O)N[C@H](C(=O)N(C)[C@H](C[C@@H](OC(C)=O)c1nc(C(=O)NC2CCC(C(=O)OC)CC2)cs1)C(C)C)C(C)C (stereo partly drawn) = 18.3

growth measured on `[Cl][Hg][n]1c(-c2ccco2)nc2ccccc21` = 104

growth measured on `Fc1cccc(NCOOC2(OOCNc3cccc(F)c3)CCCCC2)c1` = 108

growth measured on `CNC(=O)Oc1cccc(C(F)(F)F)c1` = 146

growth measured on O=[N+]([O-])c1ccc([Se]C2CCCCC2Cl)c([N+](=O)[O-])c1 (stereo not drawn) = 67.7

growth measured on `O=[N+]([O-])c1c(Br)sc(Br)c1[N+](=O)[O-]` = -75.5

growth measured on `CCCOC(=O)N[C@H]1CCc2c(Br)c(OC)c(OC)c(OC)c2-c2ccc(SC)c(=O)cc21` = 13.8

growth measured on `CC(C)CCC(=O)O[C@H]1CC[C@H]2[C@@H]3CCC4=CC(=O)CC[C@]4(C)[C@H]3CC[C@]12C` = 107

growth measured on `CC1=C([Te]c2ccc(O)cc2)C(=O)c2ccccc2C1=O` = -0.398

growth measured on O=C1C=C2C(=CCOC2O)O1 (stereo not drawn) = -74.8

growth measured on `C[Se]C(=O)c1ccccc1OC(C)=O` = 11.7

growth measured on `CNCc1cccnc1` = 121

growth measured on `O=P(N1CC1)(N1CC1)N1CCc2ccccc21` = 109

growth measured on `c1ccc(CSC(c2ccccc2)c2ccccc2)cc1` = 119

growth measured on `OCCCCCNC1CCCCC1` = 104

growth measured on `COc1ccc(Nc2ccnc3cc(Cl)ccc23)cc1CN(CCCl)CCCl` = -72.3

growth measured on `Cn1cc(-c2csc(-c3cn(CCN4CCOCC4)c4ccccc34)n2)c2cccnc21` = 93.7
